System: Intestine
procedure.details: Biodistribution in ddY mouse intestine at 0.2 to 0.4 uCi, iv after 2 mins
Type: ADME, organism-based
condition.info: in vivo
endpoint: Drug uptake (% ID/g)

1. CNc1ccc(-c2cc3cc([125I])ccc3[nH]2)cc1	0.97
2. CN(C)c1ccc(-c2cc3cc([125I])ccc3[nH]2)cc1	1.8
3. COc1ccc(-c2cc3cc([125I])ccc3[nH]2)cc1	1.9
4. OCCOc1ccc(-c2cc3cc([125I])ccc3[nH]2)cc1	1.97

----------
Tested on: Kidney
procedure.details: Biodistribution in ddY mouse kidney at 0.2 to 0.4 uCi, iv after 60 mins
Assay type: ADME, organism-based
condition.info: in vivo, 1 h
endpoint: Drug uptake (% ID/g)

1. COc1ccc(-c2cc3cc([125I])ccc3[nH]2)cc1	2.05
2. CN(C)c1ccc(-c2cc3cc([125I])ccc3[nH]2)cc1	4.71
3. CNc1ccc(-c2cc3cc([125I])ccc3[nH]2)cc1	2.61
4. OCCOc1ccc(-c2cc3cc([125I])ccc3[nH]2)cc1	2.76

----------
Attribute: Drug uptake
System: Pancreas
procedure.details: Biodistribution in ddY mouse pancreas at 0.2 to 0.4 uCi, iv after 10 mins
Type: ADME, organism-based
condition.info: in vivo
endpoint: Drug uptake

1) OCCOc1ccc(-c2cc3cc([125I])ccc3[nH]2)cc1	5.59 % ID/g
2) CNc1ccc(-c2cc3cc([125I])ccc3[nH]2)cc1	2.87 % ID/g
3) CN(C)c1ccc(-c2cc3cc([125I])ccc3[nH]2)cc1	4.13 % ID/g
4) COc1ccc(-c2cc3cc([125I])ccc3[nH]2)cc1	3.94 % ID/g

----------
Attribute: Drug uptake
Test system: Stomach
procedure.details: Biodistribution in ddY mouse stomach at 0.2 to 0.4 uCi, iv after 30 mins measured per gram of organ
Format: ADME, organism-based
condition.info: in vivo, 0.5 h
endpoint: Drug uptake (%ID)

1) COc1ccc(-c2cc3cc([125I])ccc3[nH]2)cc1	2.67
2) CNc1ccc(-c2cc3cc([125I])ccc3[nH]2)cc1	2.55
3) CN(C)c1ccc(-c2cc3cc([125I])ccc3[nH]2)cc1	17.77
4) OCCOc1ccc(-c2cc3cc([125I])ccc3[nH]2)cc1	2.11

----------
System: Liver
procedure.details: Biodistribution in ddY mouse liver at 0.2 to 0.4 uCi, iv after 30 mins
Assay type: ADME, organism-based
condition.info: in vivo, 0.5 h
endpoint: Drug uptake

1. COc1ccc(-c2cc3cc([125I])ccc3[nH]2)cc1	10.38 % ID/g
2. CN(C)c1ccc(-c2cc3cc([125I])ccc3[nH]2)cc1	3.55 % ID/g
3. CNc1ccc(-c2cc3cc([125I])ccc3[nH]2)cc1	23.07 % ID/g
4. OCCOc1ccc(-c2cc3cc([125I])ccc3[nH]2)cc1	13.42 % ID/g

----------
Test system: Liver
procedure.details: Biodistribution in ddY mouse liver at 0.2 to 0.4 uCi, iv after 2 mins
Assay type: ADME, organism-based
condition.info: in vivo
Attribute: Drug uptake
endpoint: Drug uptake (% ID/g)

1) CN(C)c1ccc(-c2cc3cc([125I])ccc3[nH]2)cc1	10.2
2) OCCOc1ccc(-c2cc3cc([125I])ccc3[nH]2)cc1	17.69
3) CNc1ccc(-c2cc3cc([125I])ccc3[nH]2)cc1	22.85
4) COc1ccc(-c2cc3cc([125I])ccc3[nH]2)cc1	17.81

----------
Attribute: Drug uptake
System: Liver
procedure.details: Biodistribution in ddY mouse liver at 0.2 to 0.4 uCi, iv after 10 mins
Assay type: ADME, organism-based
condition.info: in vivo
endpoint: Drug uptake (% ID/g)

1. OCCOc1ccc(-c2cc3cc([125I])ccc3[nH]2)cc1	16.77
2. CN(C)c1ccc(-c2cc3cc([125I])ccc3[nH]2)cc1	5.14
3. CNc1ccc(-c2cc3cc([125I])ccc3[nH]2)cc1	26.83
4. COc1ccc(-c2cc3cc([125I])ccc3[nH]2)cc1	13.96
